I'd appreciate it if you could supply pIC50 values for the items below.
Molecular target: Recombinant human renin (Homo sapiens, UniProt P00797)
Sequence (P00797 67-406): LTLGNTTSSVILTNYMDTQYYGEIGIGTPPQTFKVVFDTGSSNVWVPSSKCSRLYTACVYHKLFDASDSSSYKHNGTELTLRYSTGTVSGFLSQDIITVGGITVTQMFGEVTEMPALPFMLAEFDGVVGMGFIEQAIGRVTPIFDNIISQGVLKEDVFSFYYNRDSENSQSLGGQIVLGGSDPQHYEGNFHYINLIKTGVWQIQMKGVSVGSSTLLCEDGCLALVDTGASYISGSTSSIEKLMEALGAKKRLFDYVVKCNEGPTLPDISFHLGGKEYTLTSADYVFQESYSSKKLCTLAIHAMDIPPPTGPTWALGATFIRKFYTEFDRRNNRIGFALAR
Assay: Inhibitory activity against human renin (fluorogenic peptide substrate)
Type: biochemical
Details: 50% inhibitory concentration (IC50) against human renin, 37° C. for 1 hour
Keep in mind that pIC50 stands for -log10 of concentration in molar terms.

Prompt: Identify measured pIC50 corresponding to COC(=O)NCCCn1nc([C@@H](C)N(C(=O)[C@H]2CNCCO2)C2CC2)nc1-c1ccccc1C [Example 248]
Completion: 9.05

Prompt: Identify measured pIC50 corresponding to COC(=O)NCCCc1cc([C@@H](C)N(C(=O)[C@H]2CN[C@@H](C)CO2)C2CC2)cc(OC)n1 [Example 266]
Completion: 8.57

Prompt: Identify measured pIC50 corresponding to COC(=O)NCc1cc([C@@H](C)N(C(=O)[C@H]2CNCCO2)C2CC2)nc2ccccc12 [Example 154]
Completion: 8.62

Prompt: Identify measured pIC50 corresponding to COC(=O)NCCCn1nc([C@@H](C)N(C(=O)[C@H]2CN[C@@H](COCC(F)(F)F)CO2)C2CC2)c2ccc(C)nc21 [Example 278]
Completion: 8.92

Prompt: Identify measured pIC50 corresponding to COC(=O)NCCCc1cc([C@@H](C)N(C(=O)[C@H]2CNCCO2)C2CC2)sc1-c1ccc(C)nc1 [Example 228]
Completion: 9.40

Prompt: Identify measured pIC50 corresponding to COC(=O)NCCCc1sc([C@@H](C)N(C(=O)[C@H]2CN[C@@H](C)CO2)C2CC2)nc1-c1cccc(Cl)c1 [Example 368]
Completion: 8.08

Prompt: Identify measured pIC50 corresponding to COC(=O)NC/C=C/c1cc([C@@H](C)N(C(=O)[C@H]2CNCCO2)C2CC2)nn1-c1ccccc1 [Example 357]
Completion: 8.46

Prompt: Identify measured pIC50 corresponding to COC(=O)NCCCn1cc([C@@H](C)N(C(=O)[C@H]2CNCCO2)C2CC2)nc1-c1ccccc1F [Example 168]
Completion: 9.52

Prompt: Identify measured pIC50 corresponding to COC(=O)NCCCn1cc([C@@H](C)N(C(=O)[C@H]2CNC[C@@H](C(F)(F)F)O2)C2CC2)nc1-c1ccccc1 [Example 219]
Completion: 9.40

Prompt: Identify measured pIC50 corresponding to COCCOc1cc([C@H](C)N(C(=O)[C@H]2CNC[C@@H](COC)O2)C2CC2)cc(CCCNC(=O)OC)n1 [Example 384]
Completion: 8.49

Prompt: Identify measured pIC50 corresponding to COC(=O)NCCCc1cc([C@H](C)N(C(=O)[C@H]2CNC[C@@H](COc3ccccc3)O2)C2CC2)nn1C1CCOCC1 [Example 334]
Completion: 9.52

Prompt: Identify measured pIC50 corresponding to COC(=O)NCCCc1cc([C@@H](C)N(C(=O)[C@H]2CNCCO2)C2CC2)cc(C2CC2)n1 [Example 129]
Completion: 8.89

Prompt: Identify measured pIC50 corresponding to COC(=O)NCCCn1cc([C@H](C)N(C(=O)[C@H]2CN[C@@H](CC(F)F)CO2)C2CC2)nc1C1CCOCC1 [Example 318]
Completion: 8.89

Prompt: Identify measured pIC50 corresponding to COC[C@H]1CO[C@@H](C(=O)N(C2CC2)[C@@H](C)c2cc(C3CCOCC3)n(CCCNC(=O)OC)n2)CN1 [Example 323]
Completion: 8.70

Prompt: Identify measured pIC50 corresponding to COC(=O)NCCCc1cc([C@@H](C)N(C(=O)[C@H]2CNCCO2)C2CC2)sc1Cc1nnn[nH]1 [Example 272]
Completion: 8.21

Prompt: Identify measured pIC50 corresponding to COC(=O)NCCCc1cc([C@@H](C)N(C(=O)[C@H]2CNCCO2)C2CC2)cnc1O[C@H]1CCOC1 [Example 443]
Completion: 8.70

Prompt: Identify measured pIC50 corresponding to COC(=O)NCCCc1cc([C@@H](C)N(C(=O)[C@H]2CNCCO2)C2CC2)sc1-c1cccc(-c2nnn[nH]2)c1 [Example 263]
Completion: 9.70

Prompt: Identify measured pIC50 corresponding to COC(=O)NCCCc1cc([C@@H](C)N(C(=O)[C@H]2CNC[C@@H](C)O2)C2CC2)nn1-c1cccc(C)c1 [Example 344]
Completion: 9.40

Prompt: Identify measured pIC50 corresponding to COC(=O)NCCCc1cc([C@@H](C)N(C(=O)[C@H]2CNCCO2)C2CC2)nn1C1CCCCC1 [Example 210]
Completion: 9.70

---

Molecular target: Recombinant human renin (Homo sapiens, UniProt P00797)
Assay: Inhibitory activity against human renin (fluorogenic peptide substrate)
Type: biochemical
Conditions: 50% inhibitory concentration (IC50) against human renin, 37° C. for 1 hour
Recorded endpoint: IC50
Remember to follow the number with its unit.

Prompt: Provide IC50, tested on Recombinant human renin (Homo sapiens, UniProt P00797), for CCc1nc([C@@H](C)N(C(=O)[C@H]2CN[C@@H](COC)CO2)C2CC2)cc2c1ncn2CCCOC .
Completion: 3.7 nM

Prompt: Provide IC50, tested on Recombinant human renin (Homo sapiens, UniProt P00797), for COC(=O)NCCCn1nc([C@@H](C)N(C(=O)[C@H]2CN[C@@H](C)CO2)C2CC2)c2ccc(C)nc21 .
Completion: 0.5 nM

Prompt: Provide IC50, tested on Recombinant human renin (Homo sapiens, UniProt P00797), for COC[C@@H]1CNC[C@H](C(=O)N(C2CC2)[C@H](C)c2cc(CCCNC(=O)OC)nc(C(F)(F)F)c2)O1 .
Completion: 0.6 nM

---

Target: Recombinant human renin (Homo sapiens, UniProt P00797)
Test: Inhibitory activity against human renin (fluorogenic peptide substrate)
Type: biochemical
Conditions: 50% inhibitory concentration (IC50) against human renin, 37° C. for 1 hour
Description: Inhibitory Activity Against Human Renin A substrate of synthetic peptide (Nma-KHPFH LVIHK(Dnp)-NH2) and test compound were mixed, and fluorescence intensity was assayed using a fluorophotometer before starting an enzymatic reaction (exciting wavelength: 340 nm, measuring wavelength: 460 nm). […]
pIC50: −log10 of the molar value.
Answer Not met if pIC50 is under 9, and Met if it is 9 or more.

Prompt: I'd appreciate it if you could say whether COC(=O)NCCCc1sc(C(C)N(C(=O)[C@H]2CNCCO2)C2CC2)cc1-c1ccnn1C (stereo partly drawn) has pIC50 at least equal to 9.
Completion: Not met

Prompt: I'd appreciate it if you could say whether COC(=O)NCCCc1cc([C@@H](C)N(C(=O)[C@H]2CNC[C@@H](C)O2)C2CC2)nn1-c1cccc(F)c1 has pIC50 at least equal to 9.
Completion: Met

Prompt: I'd appreciate it if you could say whether CCOc1ncc(C(C)N(C(=O)[C@H]2CNC[C@@H](C)O2)C2CC2)nc1CCCNC(=O)OC (stereo partly drawn) has pIC50 at least equal to 9.
Completion: Not met

Prompt: I'd appreciate it if you could say whether COC(=O)NCCCc1csc([C@@H](C)N(C(=O)[C@H]2CNCCO2)C2CC2)c1 has pIC50 at least equal to 9.
Completion: Not met

Prompt: I'd appreciate it if you could say whether COC(=O)NCCCn1cc([C@@H](C)N(C(=O)[C@H]2CNC[C@@H](C(F)(F)F)O2)C2CC2)c2ncccc21 has pIC50 at least equal to 9.
Completion: Not met

Prompt: I'd appreciate it if you could say whether COC(=O)NCCCn1cc([C@H](C)N(C(=O)[C@H]2CN[C@@H](CCF)CO2)C2CC2)nc1OC(C)C has pIC50 at least equal to 9.
Completion: Met

Prompt: I'd appreciate it if you could say whether COC(=O)NCCCc1sc(C(C)N(C(=O)[C@H]2CNCCO2)C2CC2)cc1-c1cccnc1 (stereo partly drawn) has pIC50 at least equal to 9.
Completion: Not met

Prompt: I'd appreciate it if you could say whether COC(=O)NCCCc1cc([C@@H](C)N(C(=O)[C@H]2CNCCO2)C2CC2)sc1-c1ccccc1NS(C)(=O)=O has pIC50 at least equal to 9.
Completion: Met

Prompt: I'd appreciate it if you could say whether COC(=O)NCCCn1nc([C@@H](C)N(C(=O)[C@H]2CNCCO2)C2CC2)cc1C(C)C has pIC50 at least equal to 9.
Completion: Met

Prompt: I'd appreciate it if you could say whether COC(=O)NCCCc1cc(C(C)N(C(=O)[C@H]2CNCCO2)C2CC2)cnc1O[C@H]1CCOC1 (stereo partly drawn) has pIC50 at least equal to 9.
Completion: Not met

Prompt: I'd appreciate it if you could say whether COC(=O)NCCCc1cc([C@@H](C)N(C(=O)[C@H]2CNCCO2)C2CC2)nc2ccccc12 has pIC50 at least equal to 9.
Completion: Met

Prompt: I'd appreciate it if you could say whether COC(=O)NCCCc1nc(C(C)N(C(=O)[C@H]2CNCCO2)C2CC2)c(C)n1-c1ccccc1 (stereo partly drawn) has pIC50 at least equal to 9.
Completion: Not met

Prompt: I'd appreciate it if you could say whether COC[C@@H]1CNC[C@H](C(=O)N(C2CC2)[C@H](C)c2cc(OC)nc(CCCNC(=O)OC)n2)O1 has pIC50 at least equal to 9.
Completion: Not met
